Experiment: in vitro
Conditions: African green monkey
Rule: measured CC50 below 10 µM gets Y; anything equal to or greater than 10 µM gets N.

Solved cases below.
{"columns": ["Molecule smiles", "Group"],
 "data": [
  ["Cc1nc2ncc(-c3ccc(OC(C)(C)C)cc3)n2cc1-c1ccc(OC(C)C)cc1", "N"],
  ["CC(C)Oc1ccc(-n2nnc3ccc(-c4ccc(C(C)(C)O)cc4)cc32)cc1", "Y"],
  ["Cc1nc2ncc(-c3ccc(OC(C)C)cc3)n2cc1-c1ccc(OC(C)C)cc1", "Y"],
  ["CC(C)Oc1ccc(-c2cc3c(cc2CO)nnn3-c2ccc(OC(C)C)cc2)cc1", "N"]
]}

Exercise: Confirm or reject: CC50 of Cc1c(-c2ccc(OC(C)C)cc2)ccc2nnn(-c3ccc(OC(C)C)cc3)c12 lies strictly below 10 µM
Key: N

====

Experiment: in vivo
Settings: mouse, po, 30 mg/kg
Let's look at some molecules and their measured bioavailability.
Report only the number, with the unit % understood.

{"columns": ["Molecule smiles", "bioavailability, %"],
 "data": [
  ["Cc1cc2ncn(-c3ccc(OC(C)(C)C)cc3)c2cc1-c1ccc(C(C)(C)O)cc1", 35]
]}

Noted for Cc1cc2ncc(-c3ccc(OC(C)(C)C)cc3)n2cc1-c1ccc(OC(C)C)cc1 : its bioavailability reads 30

====

Let's look at some molecules and their measured EC90.
System: replicative LASV
Assay: microbe, parasite or virus in culture
Type: cell-based, Lassa Virus
Conditions: Mammarenavirus lassaense, read-out: EC90 in the VYR assay format

The cases that follow already have their EC90 on record.
{"columns": ["Molecule", "EC90"],
 "data": [
  ["Cc1cc2ncn(-c3ccc(OC(C)(C)C)cc3)c2cc1-c1ccc(OC(C)C)cc1 [Example A2]", "1 to 3 nM"],
  ["Cc1cc2ncc(-c3ccc(C(C)(C)O)cc3)n2cc1-c1ccc(OC(C)C)cc1 [Example B8]", "1 to 3 nM"],
  ["[2H]C([2H])([2H])C([2H])(Oc1ccc(-c2cn3c(-c4ccc(OC(C)(C)C)cc4)cnc3cc2C)cc1)C([2H])([2H])[2H] [Example E30]", "< 14 nM"],
  ["Cc1cc2ncn(-c3ccc(OC(C)(C)C)cc3)c2cc1-c1ccc(C(C)(C)O)cc1 [Example A1]", "1 to 3 nM"]
]}

Noted for Cc1cc2ncc(-c3ccc(OC(C)(C)C)cc3)n2cc1-c1ccc(OC(C)C)cc1 [Example B7] : its EC90 reads 1 to 3 nM

====

Biological target: hERG channel (Homo sapiens, UniProt Q12809)
Sequence (Q12809 whole entry): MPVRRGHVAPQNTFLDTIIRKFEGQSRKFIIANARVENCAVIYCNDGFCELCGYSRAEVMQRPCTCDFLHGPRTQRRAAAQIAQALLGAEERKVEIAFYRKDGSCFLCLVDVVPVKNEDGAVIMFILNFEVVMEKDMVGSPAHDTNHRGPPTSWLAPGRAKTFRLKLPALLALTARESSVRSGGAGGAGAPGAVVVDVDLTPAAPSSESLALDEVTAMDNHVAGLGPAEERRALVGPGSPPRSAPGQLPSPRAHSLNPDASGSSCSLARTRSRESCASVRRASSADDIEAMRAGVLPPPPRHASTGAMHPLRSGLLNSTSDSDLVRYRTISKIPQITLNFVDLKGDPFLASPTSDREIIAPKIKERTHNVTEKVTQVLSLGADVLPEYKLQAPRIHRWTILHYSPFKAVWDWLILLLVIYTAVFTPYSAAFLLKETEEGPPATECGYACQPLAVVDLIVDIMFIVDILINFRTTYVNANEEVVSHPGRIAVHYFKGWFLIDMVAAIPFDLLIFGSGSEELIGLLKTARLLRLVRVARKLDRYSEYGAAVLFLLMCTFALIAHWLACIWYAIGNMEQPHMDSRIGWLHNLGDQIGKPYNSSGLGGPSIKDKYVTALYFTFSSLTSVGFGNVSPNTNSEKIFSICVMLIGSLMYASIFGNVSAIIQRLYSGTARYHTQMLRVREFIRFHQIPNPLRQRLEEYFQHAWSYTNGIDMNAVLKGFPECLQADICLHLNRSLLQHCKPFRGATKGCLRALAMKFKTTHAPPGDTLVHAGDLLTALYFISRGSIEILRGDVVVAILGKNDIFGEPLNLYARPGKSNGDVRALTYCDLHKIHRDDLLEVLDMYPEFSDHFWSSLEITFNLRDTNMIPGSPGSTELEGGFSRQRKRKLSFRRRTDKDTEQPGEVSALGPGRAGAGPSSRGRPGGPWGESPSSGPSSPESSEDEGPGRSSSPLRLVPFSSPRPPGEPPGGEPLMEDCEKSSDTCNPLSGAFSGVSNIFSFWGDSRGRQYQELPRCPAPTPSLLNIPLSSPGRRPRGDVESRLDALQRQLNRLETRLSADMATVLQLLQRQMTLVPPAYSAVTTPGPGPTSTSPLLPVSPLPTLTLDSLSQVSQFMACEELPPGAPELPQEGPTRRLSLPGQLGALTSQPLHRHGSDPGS
Settings: pH 7.4
Measurement name: % Inhibition at 3 uM

{"columns": ["Molecule smiles", "Reported value"],
 "data": [
  ["Cc1cc2ncc(-c3ccc(C(C)(C)O)cc3)n2cc1-c1ccc(OC(C)C)cc1", "<10%"],
  ["Cc1cc2ncc(-c3ccc(OC(C)(C)C)cc3)n2cc1-c1ccc(OC(C)C)cc1", "<10%"],
  ["Cc1cc2ncn(-c3ccc(OC(C)(C)C)cc3)c2cc1-c1ccc(C(C)(C)O)cc1", "<10%"]
]}

# CC(C)Oc1ccc(-c2cc3c(cc2Cl)nnn3-c2ccc(OC(C)C)cc2)cc1 with hERG channel (Homo sapiens, UniProt Q12809): % Inhibition at 3 uM is <10%

====

Experiment: in vitro
Details: African green monkey
Let's look at some molecules and their measured log10 CC50.
Scale: decimal log of CC50, CC50 in µM.

The cases that follow already have their log10 CC50 on record.
{"columns": ["Molecule smiles", "Reported value"],
 "data": [
  ["Cc1cc2ncc(-c3ccc(OC(C)(C)C)cc3)n2cc1-c1ccc(OC(C)C)cc1", 0.91],
  ["CC(C)Oc1ccc(-c2cc3c(cc2N)nnn3-c2ccc(OC(C)C)cc2)cc1", 1.63],
  ["CC(C)Oc1ccc(-n2nnc3ccc(-c4cccc(C(C)(C)O)c4)cc32)cc1", 1.02],
  ["[2H]C([2H])([2H])C([2H])(Oc1ccc(-c2cn3c(-c4ccc(OC(C)(C)C)cc4)cnc3cc2C)cc1)C([2H])([2H])[2H]", 0.58],
  ["COc1cc2nnn(-c3ccc(OC(C)C)cc3)c2cc1-c1ccc(OC(C)C)cc1", 1.99],
  ["Cc1cc2ncc(-c3ccc(C(C)(C)O)cc3)n2cc1-c1ccc(OC(C)C)cc1", 1.44],
  ["Cc1nc2ncc(-c3ccc(C(C)(C)O)cc3)n2cc1-c1ccc(OC(C)C)cc1", 1.62],
  ["C=Cc1cc2nnn(-c3ccc(OC(C)C)cc3)c2cc1-c1ccc(OC(C)C)cc1", 0.59]
]}

Noted for Cc1cc2ncn(-c3ccc(OC(C)(C)C)cc3)c2cc1-c1ccc(OC(C)C)cc1 : its log10 CC50 reads 0.86

Noted for Cc1cc2ncn(-c3ccc(OC(C)(C)C)cc3)c2cc1-c1ccc(C(C)(C)O)cc1 : its log10 CC50 reads 1.58
